target: Peptide 5: Biotin-…-[Tyr(PC)]-acid; assay: scFv ELISA
Sequence (peptide, as listed by the source): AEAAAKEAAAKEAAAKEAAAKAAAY
Quick reference: OD450 of the listed items.
Field format: number, assumed OD450, no unit text.

BINDER: PcOxP_DB04_F06 (scFv, V domains shown, scFv in periplasmic extract) VH: EVQLLESGGGLVQPGGSLRLSCAASGDTFSDFYMEWVRQAPGKGLEWVAASRNKANDYTTEYADSVKGRFTISRDNSKNTLYLQMNSLRAEDTAVYYCARDYYGSSYWYFDVWGQGTLVTVSS VL: DIQMTQSPSSLSASVGDRVTITCTASESLSSSKHKVHYLAWYQQKPGKAPKLLIYGASNRYIGVPSRFSGSGSGTDFTLTISSLQPEDFATYYCAQFYSYPLTFGGGTKVEIK
U: OD450
OD450: 1.3

Let us examine a further case.
Enquiry: # return recorded OD450 for input PcOxP_DB03_G01 (scFv, V domains shown, scFv in periplasmic extract) VH: EVQLLESGGGLVQPGGSLRLSCAASGFTFSDGYMEWVRQAPGKGLEWVAASRNKANFYTTEYADSVKGRFTISRDNSKNTLYLQMNSLRAEDTAVYYCARDHYGSSYWYFDVWGQGTLVTVSS VL: DIVMTQSPDSLAVSLGERATINCTASESLYSSKHKVHYLAWYQQKPGQPPKLLIYGASNRYIGVPDRFSGSGSGTDFTLTISSLQAEDVAVYYCAQFYNYPLTFGGGTKVEIK
Return: 1.19
